Exercise: state measured protein stability index for each of the variants provided.
B1: PHTF1 (parent)
chain: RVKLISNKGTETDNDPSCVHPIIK

Variants of: B1
Test: protein stability index of a GFP-peptide fusion (GPS, HEK-293T) (PSI 1-6); higher = more stable;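 further: lentivirally expressed fusions sorted by FACS into six bins by GFP to DsRed ratio, PSI derived from sequencing read proportions per bin multiplied by bin number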
Settings: c terminus: a fixed tail appended

Mutant	protein stability index
D13K	3.74
T12I	3.86
D13L	3.4
K3C	3.52
L4T	4.84
D13N	3.68

get_value(item= H20W , readout=protein stability index) returns 3.32
